# Test system: EKVX NSCLC
# test: NCI-60 one-dose screen, 48 h (100 = growth as untreated, 0 = no growth, -100 = all killed)
# recorded.conditions: 10 µM unless noted
Compounds without any hit were thinned out: in the full panel of roughly 83,000, 20% have a hit.
Output Fulfilled for growth not less than 70%; output Not fulfilled otherwise.

Consider the worked cases shown below.
C#CCOc1cccc(-c2ncc3cc(NC(=O)CCl)ccc3n2)c1 ... Not fulfilled
O=C(NCc1ccccc1O)c1cccc2ccccc12 ... Fulfilled
C=C1C(=O)O[C@H]2[C@H]1CC/C(COC(=O)/C=C\C(=O)NCc1ccc(Cn3c(=O)sn(-c4ccccc4)c3=O)cc1)=C\CC[C@@]1(C)O[C@@H]21 ... Fulfilled
CCOC(=O)/C=C/c1c(C)[nH]c(=O)[nH]c1=O ... Fulfilled
COc1cc(-c2nc(NC(C)=O)sc2-c2ccnc(NCCNS(=O)(=O)c3ccccc3)n2)ccc1Cl ... Not fulfilled

Query: Hello, I need to know if `O=C(CN1C(=O)/C(=C/c2ccco2)SC1=S)NCCc1c[nH]c2ccc(F)cc12` has measured growth not below 70%. Thanks!
Response: Fulfilled

Query: Can COc1cccc(C(=O)OCC(O)C(=O)NC23CC4CC(CC(C4)C2)C3)c1 (stereo not given) be said to have growth at or above 70%?
Response: Fulfilled

Query: Evaluate `CC(=O)c1cc(-c2ccccc2N)n(-c2ccc3c(c2)OCO3)c1C` : growth at minimum 70%?
Response: Not fulfilled

Query: Threshold query (growth >= 70%) on COC(c1ccc2ccccc2c1)C(C)C(F)F (stereo not given)
Response: Fulfilled

Data origin: PubChem BioAssay (NCI)
